System: hemagglutinin H3 from A/HK/8/1968
Type: binding, influenza A virus
valueType: competition for binding with mAb 39.29 on Group2 H3 hemagglutinin stalk epitope

molecule: mAb9.01F3: phage-display derived anti-hemagglutinin monoclonal antibody; VL SEQ ID NO:166, VH SEQ ID NO:164 (antibody, V domains shown) VH: QVQLVQSGAEVKQPGASVKVSCKASGYTFNAYYIHWVRQAPGQGLEWMGWINPNFGGTHYARKFQGRVTMTRDASINTAYMELDRLISDDTAVYYCVRWRAAAVIMDQFYKMDVWGQGTLVTVSS VL: SSELTQPPSASGTPGQRVTISCSGSTSNIGYNPVSWYQQVPGTAPKLLIYSNTERPSGVPDRFSGSKSGTSASLAISGLQSEDEADYYCAAWDDTLNGPVFGGGTKVTVL
reportedValue: compete for binding
//
molecule: mAb23.06C2: phage-display derived anti-hemagglutinin monoclonal antibody; VL SEQ ID NO:170, VH SEQ ID NO:168 (antibody, V domains shown) VH: QVQLQESGPGLVKPSETLSLTCTVSGGLIGTGSYYWGWIRQTPGKGMEWIGSISYSGSTYYHPSLKSRVTISDDTSKNQLFLKLRSVTAADTAQYYCARYNWGIRYFDFWGRGTLVTVSS VL: DIQLTQSPLSPPVTLGQPASISCRSSQSLLYTDGFTYLSWYHQRPGQSPRRLIYKISNRDSGVPDRFSGSGSGTDFTLKISRVEAEDVGVYYCMQATHWPLTFGEGTKVEIK
reportedValue: compete for binding
//
molecule: mAb 36.89: anti-hemagglutinin monoclonal antibody; VL SEQ ID NO:162, VH SEQ ID NO:160 (antibody, V domains shown) VH: QVQLVQSGAELKRPGASVKVSCKTSGYSFNNYGINWVRQAPGQGLEWMGWISAYTGNTHYAKNFEGRVTLTTDTSTSTAYMEVRSLRSDDSAVYFCARAMIQGVVTLYLRPGDYWGQGTLVTVSS VL: DIVMTQSPSTLSASVGDRVTITCRASQSIGNWLAWYQQKPGKAPKLLIYKVSTLESGVPSRFSGSGSGTEFTLTINSLQPDDFATYYCQRYTSNSQGFTFGQGTKLEIK
reportedValue: compete for binding
